Reported pKd values for the following binders.
Target: SARS-COV-2 RBD extracellular domain expressed with a C-terminal myc-myc-hexahistidine tag (SARS-CoV-2)
Experiment: SPR (Biacore), mAb captured by anti-human Fc, RBD-mmH in solution, 25 C
To interpret pKd, take it as minus log10 of a concentration measured in moles per litre.

Sample mAb14282 (antibody, V domains shown) VH: QVQLVQSGAEVKKPGASVKVSCKASGYIFTDHYMHWVRQAPGQGLEWMGWINPNSGATNYAQNFQGRVTMTRDTSIITVYMELSRLRSDDTAVYYCARDSSPYMIRYTMDVWGQGTTITVSS VL: QSALTQPASVSGSPGQSITISCTGTSSDVGSYNLVSWYQQHPGKAPKLMIYELTKRPSGVSNRFSGSKSGNTASLTISGLQAEDEADYYCSSYRGSVTDVVFGGGTKLTVLG — what was its pKd?
8.30

How about this binder: mAb14289 (antibody, V domains shown) VH: QVQLVQSGPEVKKPGASVKVSCKASGYTFTSYAISWVRQAPGQGLEWMGWISAYNGNTNYAQKLQGRVTMTTDTFTSTAYMELRSLRSDDTAVYYCAVPADHITFDYWGQGTLVTVSS VL: EIVLTQSPGTLSLSPGERATLSCRASQSVSSYLAWYQQKPGQAPRLLIHGASSRATGIPDRFSGSGSGTDFTLTISRLEPEDFAVYYCQQYGSSFLTFGGGTKVEIKR
8.87

Next up: mAb14257 (antibody, V domains shown) VH: EVQLVESGGGLVQPGGSLRLSCAASGFTVSRSYMNWVRQAPGKGLEWVSVVFTGGTTKHTDSVKGRFTISRDNSMNTLYLQMNSLRPEDTAVYYCARVAIVETTGAFDIWGQGTMVTVSS VL: QSVLTQPPSVSGAPGQRVTISCTGTSSNIGADFDVHWYQQFPGTAPKLLIYGHTNRPSGIPDRFSGSKSGTSASLAITGLQAEDEADYYCQSYDSSLSGSVVFGGGTKLTVLG
8.55

Please do the same for mAb14294 (antibody, V domains shown) VH: EVQLVESGGGLVQPGGSLRLSCAASGFTFSNHWMDWVRQAPGKGLVWVSRINSDGSSTDYADSVRGRFTMSRDNAKNTLYLQMSSLRAEDTAVYYCAREGMIFGAVIIPGWYFDLWGRGALVTVSS VL: EIVLTQSPGTLSLSPGERATLSCRASQSVSSSQLAWYQQKPGQAPRLLIYGASSRATGIPDRFSGSGSGTDFTLTISRLEPEDFAVYYCQQYDSFGQGTKLEIKR as well.
9.04

And mAb15170 (antibody, V domains shown) VH: EVQLVESGGGLVQPGGSLRLSCAATGITVSSNYMSWVRQAPGKGLEWVSLIYSGGSTFYADSVKGRFTISRHNSKNTLYLQMSSLRAEDTAVYYCARDLVDFGMDVWGQGTTVTVSS VL: DIQLTQSPSSLSASVGDRVTITCRASQGISNYLAWYQQKPGKAPKLLIYAASTLQSGVPSRFSGSGSGTDFTLTISSLQPEDFGTYYCQQLNSDSPTFGQGTKVEIKR ?
10.00

Queued: mAb15165 (antibody, V domains shown) VH: EVQLVESGGGLVQPGGSLRLSCAASGFTVSSNYMSWVRQAPGKGLEWVSAIYSGDSTYYADSVKGRFTISKDNSKNTLYLQMNSLRGEDTAVYYCARLGGALQAYDGAFDYWGQGTLATVSS VL: QSALTQPASVSGSPGQSITISCTGTSSDFGSYNLVSWYQQHPGKAPKLMIYEGNKRPSGVSIRFSGSKSGNTASLTISGLQAEDEADYYCSSYAGSSTWVFGGGTKLTVLG
9.41
